Values compiled from PubChem BioAssay (NCI).

Answer each item with its documented TGI.
- Tested on: ACHN renal
- ASSAY_METHOD_TEXT: NCI tumour cell line growth inhibition, 48 h

# example entries with known answers
Request: Please report the recorded TGI for "CC(C)(CO)N1CCN(C(=S)Nc2ccccc2)CC1" .
Response: > 100 µM

Request: Please report the recorded TGI for "CCCCC(=O)c1ccc2ccccc2c1O" .
Response: > 100 µM

Request: Please report the recorded TGI for Nc1nccc(-c2c(-c3ccc(F)cc3)ncn2C2CCC(O)CC2)n1 (configuration not stated) .
Response: > 25 µM

Request: Please report the recorded TGI for "O=C(Nc1ccncc1)C(=O)c1cn(S(=O)(=O)c2cccc(F)c2)c2ccccc12" .
Response: > 100 µM

Request: Please report the recorded TGI for Nc1nc2c(nnn2C2CC(O)C(CO)O2)c(=O)[nH]1 (configuration not stated) .
Response: > 22.7 µM

For each of the items listed, what is its TGI?
1. C=C(C[C@](O)(C(=O)/C=C/c1ccc(Cl)cc1)C(=O)OC)c1ccccc1
2. CN(C)c1ccc(/C=C2/NC(=S)NC2=O)cc1

Response:
1: 5.2 µM; 2: > 100 µM

----------
- Test system: SK-OV-3 ovarian
- ASSAY_METHOD_TEXT: NCI tumour cell line growth inhibition, 48 h; in the data active = GI50 below about 0.43 µM; inactive = the rest
Returns: one label drawn from active, inactive

Request: Dear all, I need the recorded test outcome for Nc1nccc(-c2c(-c3ccc(F)cc3)ncn2C2CCC(O)CC2)n1 (stereo not drawn) , thank you.
Response: inactive

Request: Dear all, I need the recorded test outcome for "O=C1C(Cl)=C(NCCN2CCOCC2)C(=O)c2ncccc21" , thank you.
Response: inactive

---
Request: Dear all, I need the recorded test outcome for CCN(CC)CCCC(C)Nc1c2ccc(Cl)cc2nc2ccc(O)cc12 (stereo not drawn) , thank you.
Response: inactive

Request: Dear all, I need the recorded test outcome for CCCCCCCC(=O)OCC/C=C/C1OC1C1OC(=O)/C=C\C=C\c2nc(oc2C)/C=C(/C)CCC2OC2C1OC(=O)NC(C)=O (stereo not drawn) , thank you.
Response: active

Request: Dear all, I need the recorded test outcome for "C#CCNC(=O)c1cccc2c1cc(C)n2-c1nc2c(c(NCc3ccccc3)n1)CCCC2" , thank you.
Response: active

Request: Dear all, I need the recorded test outcome for "O=C(O)CCNC1CCCCC1" , thank you.
Response: inactive

Request: Dear all, I need the recorded test outcome for "COc1cc2ncn(-c3cc(OCc4cccs4)c(C(N)=O)s3)c2cc1OC" , thank you.
Response: inactive

----------
- Tested on: A498 renal
- ASSAY_METHOD_TEXT: NCI tumour cell line growth inhibition, 48 h
Answer each item with its documented GI50.

For each of the items listed, what is its GI50?
1. COc1ccc(-c2onc(N)c2-c2cc(OC)c3c(c2)OCO3)cc1
2. O=C1C(Cl)=C(NCCN2CCOCC2)C(=O)c2ncccc21

Response:
1. 1500 nM
2. 1910 nM

----------
- Test system: SN12C renal
- ASSAY_METHOD_TEXT: NCI tumour cell line growth inhibition, 48 h
Answer each item with its documented TGI.

Request: Kindly state the measured TGI obtained for "Cc1cc2cc3c(cc2c(-c2ccc([N+](=O)[O-])cc2)n1)OCO3" with SN12C renal.
Response: > 100 µM

Request: Kindly state the measured TGI obtained for "Cc1ccc(/C(Cl)=C/C=C(C#N)C#N)cc1" with SN12C renal.
Response: 17.4 µM

Request: Kindly state the measured TGI obtained for "N#Cc1c(=O)n(-c2ccccc2)c(O)c2c(N)n[nH]c12" with SN12C renal.
Response: > 100 µM

Request: Kindly state the measured TGI obtained for "O=S(=O)(SC1=NCCN1)c1ccc2ccccc2c1" with SN12C renal.
Response: 68.9 µM

Request: Kindly state the measured TGI obtained for "COc1cc2ncnc(Nc3cccc(Cl)c3)c2cc1OC" with SN12C renal.
Response: 45.8 µM

For each of the items listed, what is its TGI?
1. O=C(O)COCC(=O)N(CCOCCN(Cc1ccccc1)C(=O)COCC(=O)O)Cc1ccccc1
2. CC(C)(C)OC(=O)CN1C(=O)CC1CC(=O)c1ccccc1 (configuration not stated)
3. C#CCNC(=O)c1cccc2c1cc(C)n2-c1nc2c(c(NCc3ccccc3)n1)CCCC2
4. O=C(N/C(=C\c1cccc([N+](=O)[O-])c1)c1nc2ccc([N+](=O)[O-])cc2[nH]1)c1ccccc1
5. O=c1[nH]nc(-c2ccccc2)n1-c1ccncc1

Response:
["> 100 µM", "51.1 µM", "0.0689 µM", "> 100 µM", "> 100 µM"]

For each of the items listed, what is its TGI?
1. O/N=C/c1ncccc1C1OCCO1
2. CCOCc1c(C)cc(C)c(C2C(C(=O)c3ccccc3)N3c4ccccc4C=CC3C2(C#N)C(=O)OCC)c1C (configuration not stated)
3. CC1OC(OC2C(OC(=O)[C@]34CCC(C)(C)CC3C3=CCC5[C@@]6(C)C[C@H](O)[C@H](OC7OC(CO)C(O)C(O)C7N)[C@@](C)(C(=O)O)C6CC[C@@]5(C)C3(C)CC4)OCC(O)C2O)C(O)C(O)C1OC1OCC(O)C(O)C1O (some centres not stated)
4. COc1ccccc1NC(=S)Nc1cc(C)cc(C)n1
5. COc1ccc(CC2CCc3nc(N)nc(N)c3C2)cc1OC (configuration not stated)
6. O=C1CCC(N2C(=O)c3ccccc3C2=O)C(=O)N1CO (configuration not stated)
7. O=C(O)CCC(=O)Nc1ccc2ccccc2c1
8. O=C(Nc1ccncc1)C(=O)c1cn(S(=O)(=O)c2cccc(F)c2)c2ccccc12

Response:
1. > 100 µM
2. > 100 µM
3. > 100 µM
4. > 100 µM
5. > 100 µM
6. > 100 µM
7. > 100 µM
8. > 100 µM

For each of the items listed, what is its TGI?
1. O=C1N[C@H]2c3c(Cl)sc(Cl)c3[C@@H](O)[C@H]2O1
2. O=C(N/N=C/C=C/c1ccccc1)[C@H](O)[C@@H](O)C(=O)N/N=C/C=C/c1ccccc1

Response:
1. > 100 µM
2. > 100 µM

For each of the items listed, what is its TGI?
1. CC(C)(C)C(=O)OCOP(=O)(OCOC(=O)C(C)(C)C)OCC1OC(n2ccc(=O)[nH]c2=O)C(N=[N+]=[N-])C1O (configuration not stated)
2. Cn1c2ccccc2c2ccc3c(c21)C(=O)c1ccccc1C3=O
3. Nc1nc2c(nnn2C2CC(O)C(CO)O2)c(=O)[nH]1 (configuration not stated)
4. CNC(=O)C1CCc2nnc(-c3ccccc3)n21 (configuration not stated)
5. Cc1ccc(-c2nc3nc(-c4ccccc4)nc(N4CCCNCC4)c3o2)cc1

Response:
["22 µM", "73.1 µM", "> 100 µM", "> 100 µM", "3.06 µM"]
